This section presents compounds with their documented CC50 at 24 h values.
Assay: Cytotoxicity against human HepG2 cells after 24 hrs by resazurin assay
Assay type: cell-based
Settings: HepG2 cells
Bridge positions count the residues as written; N and C are the ends. Square brackets hold non-standard residues; d marks the D form. Peptide text beside a SMILES is read from it. * marks the point of attachment. dBip = N[C@H](Cc1ccc(-c2ccccc2)cc1)C(=O)O; Phe(4-NH2) = Nc1ccc(C[C@H](N)C(=O)O)cc1; Octanoyl = CCCCCCCC(=O)*; Dab = NCC[C@H](N)C(=O)O

Would you please look over these solved cases?
CCCCCCCC(=O)N[C@@H](CCN)C(=O)N[C@H](C(=O)N[C@@H](CCN)C(=O)N[C@H]1CCNC(=O)[C@H]([C@@H](C)O)NC(=O)[C@H](CCN)NC(=O)[C@H](CCN)NC(=O)[C@H](CC(C)C)NC(=O)[C@@H](Cc2ccccc2)NC(=O)[C@H](Cc2ccc(N)cc2)NC1=O)[C@@H](C)O (Octanoyl-[Dab]T[Dab][Dab][Phe(4-NH2)][dF]L[Dab][Dab]T; lactam 4-C); > 300 µM
CCCCCCCC(=O)N[C@@H](CCN)C(=O)N[C@H](C(=O)N[C@@H](CCN)C(=O)N[C@H]1CCNC(=O)[C@H]([C@@H](C)O)NC(=O)[C@H](CCN)NC(=O)[C@H](CCN)NC(=O)[C@H](CC(C)C)NC(=O)[C@@H](Cc2ccc(-c3ccccc3)cc2)NC(=O)[C@H](CCN)NC1=O)[C@@H](C)O (Octanoyl-[Dab]T[Dab][Dab][Dab][dBip]L[Dab][Dab]T; lactam 4-C); 119 µM

Which value of CC50 at 24 h has been reported for CCCCCCCC(=O)N[C@@H](CCN)C(=O)N[C@H](C(=O)N[C@@H](CCN)C(=O)N[C@H]1CCNC(=O)[C@H]([C@@H](C)O)NC(=O)[C@H](CCN)NC(=O)[C@H](CCNC(=O)[C@@H](N)CCC(=O)O)NC(=O)[C@H](CC(C)C)NC(=O)[C@@H](Cc2ccccc2)NC(=O)[C@H](CCN)NC1=O)[C@@H](C)O (Octanoyl-[Dab]T[Dab][Dab][Dab][dF]L[Dab](Glu)[Dab]T; lactam 4-C) in the records?
> 300 µM
